STUDY TARGET: T1, Soluble recombinant human urokinase receptor (suPAR) (human, UniProt Q03405 23-299, limits assumed, biotinylated in the plate assays (sites not given))
T1 construct: Only called a soluble truncated form of the urokinase receptor; also called soluble uPAR; biotinylated suPAR
T1 sequence (Q03405 23-299 limits assumed): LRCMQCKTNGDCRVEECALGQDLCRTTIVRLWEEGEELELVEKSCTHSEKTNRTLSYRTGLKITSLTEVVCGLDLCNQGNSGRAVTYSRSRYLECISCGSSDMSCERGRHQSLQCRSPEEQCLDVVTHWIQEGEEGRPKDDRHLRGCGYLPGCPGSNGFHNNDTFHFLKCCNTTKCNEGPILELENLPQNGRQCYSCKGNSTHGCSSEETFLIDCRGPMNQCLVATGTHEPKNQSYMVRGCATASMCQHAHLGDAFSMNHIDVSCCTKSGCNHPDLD
TEST METHOD NOTES: competition with phage displaying peptide 25 for soluble uPAR
Square brackets hold non-standard residues; d marks the D form. Ends that are not written are not given here. 1Nal = N[C@@H](Cc1cccc2ccccc12)C(=O)O; 2Nal = N[C@@H](Cc1ccc2ccccc2c1)C(=O)O; Abu = CC[C@H](N)C(=O)O
READOUT KIND: % Inhibition at 2.5 uM (%)
Numbers only, in %.

Completed entries (count: 7):
[[record]]
binder = "AESTFHHLSLGYMYTLN-NH2 [Analog 34]"
value_units = "%"
readout_value = 38

[[record]]
binder = "AESTYHHLSLGYMYT[dL]N-NH2 (N-terminus assumed; SMILES CSCC[C@H](NC(=O)[C@H](Cc1ccc(O)cc1)NC(=O)CNC(=O)[C@H](CC(C)C)NC(=O)[C@H](CO)NC(=O)[C@H](CC(C)C)NC(=O)[C@H](Cc1c[nH]cn1)NC(=O)[C@H](Cc1c[nH]cn1)NC(=O)[C@H](Cc1ccc(O)cc1)NC(=O)[C@@H](NC(=O)[C@H](CO)NC(=O)[C@H](CCC(=O)O)NC(=O)[C@H](C)N)[C@@H](C)O)C(=O)N[C@@H](Cc1ccc(O)cc1)C(=O)N[C@H](C(=O)N[C@H](CC(C)C)C(=O)N[C@@H](CC(N)=O)C(N)=O)[C@@H](C)O) [Analog 60]"
value_units = "%"
readout_value = 22

[[record]]
binder = "AEST[1Nal]HHLSLGYMYTLN-NH2 (N-terminus assumed; SMILES CSCC[C@H](NC(=O)[C@H](Cc1ccc(O)cc1)NC(=O)CNC(=O)[C@H](CC(C)C)NC(=O)[C@H](CO)NC(=O)[C@H](CC(C)C)NC(=O)[C@H](Cc1c[nH]cn1)NC(=O)[C@H](Cc1c[nH]cn1)NC(=O)[C@H](Cc1cccc2ccccc12)NC(=O)[C@@H](NC(=O)[C@H](CO)NC(=O)[C@H](CCC(=O)O)NC(=O)[C@H](C)N)[C@@H](C)O)C(=O)N[C@@H](Cc1ccc(O)cc1)C(=O)N[C@H](C(=O)N[C@@H](CC(C)C)C(=O)N[C@@H](CC(N)=O)C(N)=O)[C@@H](C)O) [Analog 35]"
value_units = "%"
readout_value = 70

[[record]]
binder = "AESTYHHLSLGYMYTLN-NH2 (also called clone 25 peptide; analogs 3 and 4) [Peptide 25 (synthetic peptide of clone 25)]"
value_units = "%"
readout_value = 45

[[record]]
binder = "AESTYHHLSLGY[Abu]YTLN-NH2 (N-terminus assumed; SMILES CC[C@H](NC(=O)[C@H](Cc1ccc(O)cc1)NC(=O)CNC(=O)[C@H](CC(C)C)NC(=O)[C@H](CO)NC(=O)[C@H](CC(C)C)NC(=O)[C@H](Cc1c[nH]cn1)NC(=O)[C@H](Cc1c[nH]cn1)NC(=O)[C@H](Cc1ccc(O)cc1)NC(=O)[C@@H](NC(=O)[C@H](CO)NC(=O)[C@H](CCC(=O)O)NC(=O)[C@H](C)N)[C@@H](C)O)C(=O)N[C@@H](Cc1ccc(O)cc1)C(=O)N[C@H](C(=O)N[C@@H](CC(C)C)C(=O)N[C@@H](CC(N)=O)C(N)=O)[C@@H](C)O, T0004 prints Y there, as in peptide 25; Y is used) [Analog 45]"
value_units = "%"
readout_value = 31

[[record]]
binder = "AESTYHHL[dS]LGYMYTLN-NH2 (N-terminus assumed; SMILES CSCC[C@H](NC(=O)[C@H](Cc1ccc(O)cc1)NC(=O)CNC(=O)[C@H](CC(C)C)NC(=O)[C@@H](CO)NC(=O)[C@H](CC(C)C)NC(=O)[C@H](Cc1c[nH]cn1)NC(=O)[C@H](Cc1c[nH]cn1)NC(=O)[C@H](Cc1ccc(O)cc1)NC(=O)[C@@H](NC(=O)[C@H](CO)NC(=O)[C@H](CCC(=O)O)NC(=O)[C@H](C)N)[C@@H](C)O)C(=O)N[C@@H](Cc1ccc(O)cc1)C(=O)N[C@H](C(=O)N[C@@H](CC(C)C)C(=O)N[C@@H](CC(N)=O)C(N)=O)[C@@H](C)O) [Analog 54]"
value_units = "%"
readout_value = 73

[[record]]
binder = "AEST[2Nal]HHLSLGYMYTLN-NH2 (N-terminus assumed; SMILES CSCC[C@H](NC(=O)[C@H](Cc1ccc(O)cc1)NC(=O)CNC(=O)[C@H](CC(C)C)NC(=O)[C@H](CO)NC(=O)[C@H](CC(C)C)NC(=O)[C@H](Cc1c[nH]cn1)NC(=O)[C@H](Cc1c[nH]cn1)NC(=O)[C@H](Cc1ccc2ccccc2c1)NC(=O)[C@@H](NC(=O)[C@H](CO)NC(=O)[C@H](CCC(=O)O)NC(=O)[C@H](C)N)[C@@H](C)O)C(=O)N[C@@H](Cc1ccc(O)cc1)C(=O)N[C@H](C(=O)N[C@@H](CC(C)C)C(=O)N[C@@H](CC(N)=O)C(N)=O)[C@@H](C)O) [Analog 36]"
value_units = "%"
readout_value = 61


Quick check: % Inhibition at 2.5 uM of [dA]ESTYHHLSLGYMYTLN-NH2 (N-terminus assumed; SMILES CSCC[C@H](NC(=O)[C@H](Cc1ccc(O)cc1)NC(=O)CNC(=O)[C@H](CC(C)C)NC(=O)[C@H](CO)NC(=O)[C@H](CC(C)C)NC(=O)[C@H](Cc1c[nH]cn1)NC(=O)[C@H](Cc1c[nH]cn1)NC(=O)[C@H](Cc1ccc(O)cc1)NC(=O)[C@@H](NC(=O)[C@H](CO)NC(=O)[C@H](CCC(=O)O)NC(=O)[C@@H](C)N)[C@@H](C)O)C(=O)N[C@@H](Cc1ccc(O)cc1)C(=O)N[C@H](C(=O)N[C@@H](CC(C)C)C(=O)N[C@@H](CC(N)=O)C(N)=O)[C@@H](C)O) [Analog 46] ?
41
